# Tested on: Human Microvascular Endothelial Cells (HMVEC)
# test method notes: Endothelial cell migration assay (bFGF induced, modified Boyden chamber)
# Assay type: cell-based
# conditions used: Homo sapiens, 500 nM test substance, 4 hours at 37 °C, percent inhibition of migration compared to a positive control
Answer each item with its documented inhibition at 0.5 µM.
# value in %; strip the unit string

Inquiry: // returns reported inhibition at 0.5 µM for input Cc1ccc(-c2nc(N)nc(N)n2)cn1 [Example 68]
Reply text: 73

Inquiry: // returns reported inhibition at 0.5 µM for input CC(=O)Nc1nc(NC(C)=O)nc(-c2ccc(S(=O)(=O)c3ccccc3)cc2)n1 [Example 76]
Reply text: 33

Inquiry: // returns reported inhibition at 0.5 µM for input Nc1nc(N)nc(-c2ccc(Cl)nc2)n1 [Example 69]
Reply text: 39

Inquiry: // returns reported inhibition at 0.5 µM for input CNc1nc(NC)nc(-c2ccc(-c3ccccc3)cc2)n1 [Example 63]
Reply text: 79

Inquiry: // returns reported inhibition at 0.5 µM for input Nc1nc(N)nc(C2CCN(Cc3ccccc3)CC2)n1 [Example 75]
Reply text: 16

Inquiry: // returns reported inhibition at 0.5 µM for input CC(=O)Nc1nc(N)nc(-c2ccc(S(=O)(=O)c3ccccc3)cc2)n1 [Example 77]
Reply text: 50

Inquiry: // returns reported inhibition at 0.5 µM for input Nc1nc(N)nc(C2CCN(C(=O)c3ccccc3)CC2)n1 [Example 74]
Reply text: 82
